target: HRP (Armoracia rusticana, UniProt P00433); construct: purchased Dako K4061; assay: IHC staining of FFPE human tissues and Her2 control cell lines, Envision+ Dual link HRP visualization, DAB as reference; design: species or system horse radish; details: tested in 0.4 to 1 mM
Sequence (P00433 31-338): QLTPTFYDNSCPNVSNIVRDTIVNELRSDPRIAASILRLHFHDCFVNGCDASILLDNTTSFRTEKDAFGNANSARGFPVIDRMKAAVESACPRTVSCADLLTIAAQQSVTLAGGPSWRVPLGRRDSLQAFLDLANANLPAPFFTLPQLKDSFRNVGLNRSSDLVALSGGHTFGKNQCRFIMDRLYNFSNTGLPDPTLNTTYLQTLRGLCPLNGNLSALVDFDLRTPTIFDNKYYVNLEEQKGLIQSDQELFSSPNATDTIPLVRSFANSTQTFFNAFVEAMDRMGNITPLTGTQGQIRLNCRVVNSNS
Reported Property: colour of IHC stain

CC/N=c1\cc2oc3cc(NCC)c(C)cc3c(-c3ccccc3C(=O)OCCN3CCN(CC(=O)NCCOCCOCCNC(=O)/C=C/c4ccc(O)cc4)CC3)c-2cc1C red stains
CC/N=c1\cc2oc3cc(NCC)c(C)cc3c(-c3ccccc3C(=O)OCC(=O)NCCNC(=O)/C=C/c3ccc(O)cc3)c-2cc1C red stains

---

assay: UV-VIS absorbance maxima of chromogenic conjugates and mixtures; assay type: physicochemical
Reported Property: Absp nm (max) (nm)
Enter your answer as a number in nm; do not include the unit.

Query :: Need Absp nm (max) of CC/N=c1\cc2oc3cc(NCC)c(C)cc3c(-c3ccccc3C(=O)OCC(=O)NCCOCCOCCNC(=O)COCC(=O)NCCOCCOCCNC(=O)/C=C/c3ccc(O)cc3)c-2cc1C , thanks.
Result :: 533

Query :: Give its Absp nm (max) value. Item: N=c1ccc2c(-c3ccccc3C(=O)OCC(=O)NCCOCCOCCNC(=O)/C=C/c3ccc(O)cc3)c3ccc(N)cc3oc-2c1
Result :: 505

Query :: Fill in: Absp nm (max) of O=C(/C=C/c1ccc(O)cc1)NCCOCCOCCNC(=O)COC(=O)c1ccccc1C1=c2cc3c4c(c2Oc2c1cc1c5c2CCCN5CCC1)CCC[N+]=4CCC3 is ___
Result :: 584

Query :: Quick one: Absp nm (max) of O=C(/C=C/c1ccc(O)cc1)NCCOCCOCCNC(=O)CN1CCN(C(=O)c2ccccc2-c2c3ccc(=O)cc-3oc3cc(O)ccc23)CC1 ?
Result :: 508

Query :: Dear colleague, I am looking for the recorded Absp nm (max) of the following molecule: CC/N=c1\cc2oc3cc(NCC)c(C)cc3c(-c3ccccc3C(=O)OCC(=O)NCCOCCOCCNC(=O)/C=C/c3ccc(O)cc3O)c-2cc1C
Result :: 531

Query :: Query (molecule): CC/N=c1\cc2oc3cc(NCC)c(C)cc3c(-c3ccccc3C(=O)OCC(=O)NCCOCCOCCNC(=O)/C=C/c3cc(OC)c(O)c(OC)c3)c-2cc1C ; field requested: Absp nm (max)
Result :: 531

Query :: Which Absp nm (max) value belongs to CCN(CC)c1ccc2c(-c3ccccc3C(=O)OCC(=O)NCCOCCOCCNC(=O)/C=C/c3ccc(O)cc3)c3ccc(=[N+](CC)CC)cc-3oc2c1 ?
Result :: 561

Query :: Absp nm (max) lookup needed for CN(C)c1ccc2c(-c3ccccc3C(=O)OCC(=O)NCCOCCOCCNC(=O)/C=C/c3ccc(O)cc3)c3ccc(=[N+](C)C)cc-3oc2c1 , thanks.
Result :: 556

Query :: Consider the molecule CC/N=c1\cc2oc3cc(NCC)c(C)cc3c(-c3ccccc3C(=O)N3CCN(CC(=O)NCCOCCOCCNC(=O)/C=C/c4ccc(O)cc4)CC3)c-2cc1C and give its measured Absp nm (max).
Result :: 536
